Target: SIRT1 (Homo sapiens)
Sequence (Q96EB6 whole entry): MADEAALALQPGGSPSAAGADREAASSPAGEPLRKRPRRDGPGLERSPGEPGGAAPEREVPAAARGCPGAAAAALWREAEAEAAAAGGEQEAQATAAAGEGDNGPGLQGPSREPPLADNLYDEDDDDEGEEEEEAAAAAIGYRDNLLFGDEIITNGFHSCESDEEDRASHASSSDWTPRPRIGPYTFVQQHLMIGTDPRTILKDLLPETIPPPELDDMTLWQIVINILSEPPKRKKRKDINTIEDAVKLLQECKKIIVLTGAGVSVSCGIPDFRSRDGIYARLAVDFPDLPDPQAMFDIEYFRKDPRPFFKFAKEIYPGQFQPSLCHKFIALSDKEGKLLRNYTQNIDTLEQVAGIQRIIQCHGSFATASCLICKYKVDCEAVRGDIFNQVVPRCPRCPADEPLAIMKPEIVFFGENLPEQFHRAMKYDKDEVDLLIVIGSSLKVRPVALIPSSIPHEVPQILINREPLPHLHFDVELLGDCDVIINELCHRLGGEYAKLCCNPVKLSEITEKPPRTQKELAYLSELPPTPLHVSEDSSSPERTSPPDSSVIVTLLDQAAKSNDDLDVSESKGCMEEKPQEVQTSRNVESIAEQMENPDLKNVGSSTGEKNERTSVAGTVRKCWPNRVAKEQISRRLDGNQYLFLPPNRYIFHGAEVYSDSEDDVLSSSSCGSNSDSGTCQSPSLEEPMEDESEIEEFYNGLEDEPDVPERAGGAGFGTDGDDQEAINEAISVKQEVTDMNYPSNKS
Assay: mass spectrometry based SIRT1 deacetylation assay (activation)
Assay type: biochemical
Conditions: 0.5 μM peptide substrate, 120 μM βNAD+, 10 nM SIRT1, 25 min at 25° C.; read-out: % FOLD ACT. (percent maximum fold activation of SIRT1)
From the text: A mass spectrometry based assay was used to identify modulators of SIRT1 activity. The mass spectrometry based assay utilizes a peptide having 20 amino acid residues as follows: Ac-EE-K(biotin)-GQSTSSHSK(Ac)NleSTEG-K(5TMR)-EE-NH2 (SEQ ID NO: 1) wherein K(Ac) is an acetylated lysine residue and Nle is a norleucine. The peptide is labeled with the fluorophore 5TMR (excitation 540 nm/emission 580 nm) at the C-terminus. The sequence of the peptide substrate is based on p53 with several modifications. […]
REPORTED_ENDPOINT: Emax (%)
Answers are plain numbers, in %.

{"SMILES_RECORD": "CC(C)NCc1cnc2sc(-c3ccccc3NC(=O)c3cncc(-c4ccccc4)c3)nc2c1", "TEST_TARGET": "SIRT1 (Homo sapiens)", "READOUT_UNITS": "%", "Emax": 162}

# input compound: COc1cc(C(=O)Nc2ccccc2-c2nc3cc(CN4CCOCC4)cnc3s2)nc2ccccc12 ; wanted: its Emax
292

Measured values drawn from patent US8268862B2 for this set.
